System: KB (Oral squamous)
Measurement Notes: MTT cytotoxicity assay, KB cells
Format: cell-based
Condition Description: 1µM, 48 hours
Consider the following substances; for each one, report its Percentage cytotoxicity.
Respond with the bare value in %.

Param item: D-Phe-Cys-Tyr-D-Trp-Orn-Deg-Pen-Thr-NH2 [SEQ ID NO: 2] ; param system: KB (Oral squamous); output Percentage cytotoxicity: 12.0

Param item: D-Phe-Cys-Tyr-D-Trp-Orn-Ac5c-Pen-Thr-NH2 [SEQ ID NO: 3] ; param system: KB (Oral squamous); output Percentage cytotoxicity: 17.9

Param item: D-Phe-Cys-Tyr-D-Trp-Lys-Ac5c-Pen-Thr-NH2 [SEQ ID NO: 6] ; param system: KB (Oral squamous); output Percentage cytotoxicity: 12.9

Param item: D-Phe-Cys-Tyr-D-Trp-Orn-Aib-Pen-Thr-NH2 [SEQ ID NO: 9] ; param system: KB (Oral squamous); output Percentage cytotoxicity: 12.0

====

Tested on: KB (Oral squamous)
Measurement Notes: MTT cytotoxicity assay, KB cells
Type: cell-based
Condition Description: 10 nM, 48 hours
Outcome Measure: Percentage cytotoxicity (%)
Respond with the bare value in %.

For D-Phe-Cys-Tyr-D-Trp-Orn-Deg-Pen-Thr-NH2 [SEQ ID NO: 2] the substance record lists Percentage cytotoxicity as 34.9

For D-Phe-Cys-Tyr-D-Trp-Orn-Ac5c-Pen-Thr-NH2 [SEQ ID NO: 3] the substance record lists Percentage cytotoxicity as 25.0

For D-Phe-Cys-Tyr-D-Trp-Orn-Aib-Pen-Thr-NH2 [SEQ ID NO: 9] the substance record lists Percentage cytotoxicity as 27.0

For D-Phe-Cys-Tyr-D-Trp-Lys-Ac5c-Pen-Thr-NH2 [SEQ ID NO: 6] the substance record lists Percentage cytotoxicity as 23.0

====

Test system: HBL100 (Breast)
Measurement Notes: MTT cytotoxicity assay, HBL100 cells
Assay type: cell-based
Condition Description: 100n M, 48 hours
Outcome Measure: Percentage cytotoxicity (%)
Respond with the bare value in %.

For D-Phe-Cys-Tyr-D-Trp-Lys-Ac5c-Pen-Thr-NH2 [SEQ ID NO: 6] the substance record lists Percentage cytotoxicity as 12.6

For D-Phe-Cys-Tyr-D-Trp-Orn-Ac5c-Pen-Thr-NH2 [SEQ ID NO: 3] the substance record lists Percentage cytotoxicity as 11.8

For D-Phe-Cys-Tyr-D-Trp-Orn-Aib-Pen-Thr-NH2 [SEQ ID NO: 9] the substance record lists Percentage cytotoxicity as 14.9

For D-Phe-Cys-Tyr-D-Trp-Orn-Deg-Pen-Thr-NH2 [SEQ ID NO: 2] the substance record lists Percentage cytotoxicity as 15.7

====

Tested on: HeP2 (Laryngeal)
Measurement Notes: MTT cytotoxicity assay, HeP2 cells
Assay type: cell-based
Condition Description: 1nM, 48 hours
Consider the following substances; for each one, report its Percentage cytotoxicity.
Respond with the bare value in %.

For D-Phe-Cys-Tyr-D-Trp-Orn-Aib-Pen-Thr-NH2 [SEQ ID NO: 9] the substance record lists Percentage cytotoxicity as 15.6

For D-Phe-Cys-Tyr-D-Trp-Lys-Ac5c-Pen-Thr-NH2 [SEQ ID NO: 6] the substance record lists Percentage cytotoxicity as 8.0

For D-Phe-Cys-Tyr-D-Trp-Orn-Ac5c-Pen-Thr-NH2 [SEQ ID NO: 3] the substance record lists Percentage cytotoxicity as 13.9

For D-Phe-Cys-Tyr-D-Trp-Orn-Deg-Pen-Thr-NH2 [SEQ ID NO: 2] the substance record lists Percentage cytotoxicity as 14.9

====

Tested on: PA-1 (Ovary)
Measurement Notes: MTT cytotoxicity assay, PA-1 cells
Assay type: cell-based
Condition Description: 10 nM, 48 hours
Outcome Measure: Percentage cytotoxicity (%)
Respond with the bare value in %.

For D-Phe-Cys-Tyr-D-Trp-Orn-Aib-Pen-Thr-NH2 [SEQ ID NO: 9] the substance record lists Percentage cytotoxicity as 12.8

For D-Phe-Cys-Tyr-D-Trp-Lys-Ac5c-Pen-Thr-NH2 [SEQ ID NO: 6] the substance record lists Percentage cytotoxicity as 25.9

For D-Phe-Cys-Tyr-D-Trp-Orn-Deg-Pen-Thr-NH2 [SEQ ID NO: 2] the substance record lists Percentage cytotoxicity as 27.9

For D-Phe-Cys-Tyr-D-Trp-Orn-Ac5c-Pen-Thr-NH2 [SEQ ID NO: 3] the substance record lists Percentage cytotoxicity as 39.5

====

System: L132 (Lung)
Measurement Notes: MTT cytotoxicity assay, L132 cells
Format: cell-based
Condition Description: 1nM, 48 hours
Consider the following substances; for each one, report its Percentage cytotoxicity.
Respond with the bare value in %.

For D-Phe-Cys-Tyr-D-Trp-Lys-Ac5c-Pen-Thr-NH2 [SEQ ID NO: 6] the substance record lists Percentage cytotoxicity as 14.9

For D-Phe-Cys-Tyr-D-Trp-Orn-Aib-Pen-Thr-NH2 [SEQ ID NO: 9] the substance record lists Percentage cytotoxicity as 14.9

For D-Phe-Cys-Tyr-D-Trp-Orn-Ac5c-Pen-Thr-NH2 [SEQ ID NO: 3] the substance record lists Percentage cytotoxicity as 19.0

For D-Phe-Cys-Tyr-D-Trp-Orn-Deg-Pen-Thr-NH2 [SEQ ID NO: 2] the substance record lists Percentage cytotoxicity as 12.7

====

System: KB (Oral squamous)
Measurement Notes: MTT cytotoxicity assay, KB cells
Type: cell-based
Condition Description: 1nM, 48 hours
Consider the following substances; for each one, report its Percentage cytotoxicity.
Respond with the bare value in %.

For D-Phe-Cys-Tyr-D-Trp-Orn-Deg-Pen-Thr-NH2 [SEQ ID NO: 2] the substance record lists Percentage cytotoxicity as 28.0

For D-Phe-Cys-Tyr-D-Trp-Orn-Aib-Pen-Thr-NH2 [SEQ ID NO: 9] the substance record lists Percentage cytotoxicity as 28.0

For D-Phe-Cys-Tyr-D-Trp-Orn-Ac5c-Pen-Thr-NH2 [SEQ ID NO: 3] the substance record lists Percentage cytotoxicity as 29.8

For D-Phe-Cys-Tyr-D-Trp-Lys-Ac5c-Pen-Thr-NH2 [SEQ ID NO: 6] the substance record lists Percentage cytotoxicity as 28.0

====

Tested on: ECV304 (Endothelial)
Measurement Notes: MTT cytotoxicity assay, ECV304 cells
Format: cell-based
Condition Description: 1nM, 48 hours
Consider the following substances; for each one, report its Percentage cytotoxicity.
Respond with the bare value in %.

For D-Phe-Cys-Tyr-D-Trp-Lys-Ac5c-Pen-Thr-NH2 [SEQ ID NO: 6] the substance record lists Percentage cytotoxicity as 18.9

For D-Phe-Cys-Tyr-D-Trp-Orn-Deg-Pen-Thr-NH2 [SEQ ID NO: 2] the substance record lists Percentage cytotoxicity as 22.8

For D-Phe-Cys-Tyr-D-Trp-Orn-Ac5c-Pen-Thr-NH2 [SEQ ID NO: 3] the substance record lists Percentage cytotoxicity as 13.9

For D-Phe-Cys-Tyr-D-Trp-Orn-Aib-Pen-Thr-NH2 [SEQ ID NO: 9] the substance record lists Percentage cytotoxicity as 18.0

====

Test system: U87MG (Glioblastoma)
Measurement Notes: MTT cytotoxicity assay, U87MG cells
Assay type: cell-based
Condition Description: 100n M, 48 hours
Outcome Measure: Percentage cytotoxicity (%)
Respond with the bare value in %.

Param item: D-Phe-Cys-Tyr-D-Trp-Orn-Ac5c-Pen-Thr-NH2 [SEQ ID NO: 3] ; param system: U87MG (Glioblastoma); output Percentage cytotoxicity: 42.4

Param item: D-Phe-Cys-Tyr-D-Trp-Orn-Aib-Pen-Thr-NH2 [SEQ ID NO: 9] ; param system: U87MG (Glioblastoma); output Percentage cytotoxicity: 53.3

Param item: D-Phe-Cys-Tyr-D-Trp-Orn-Deg-Pen-Thr-NH2 [SEQ ID NO: 2] ; param system: U87MG (Glioblastoma); output Percentage cytotoxicity: 39.5

Param item: D-Phe-Cys-Tyr-D-Trp-Lys-Ac5c-Pen-Thr-NH2 [SEQ ID NO: 6] ; param system: U87MG (Glioblastoma); output Percentage cytotoxicity: 42.9

====

Consider the following substances; for each one, report its Percentage cytotoxicity.
Tested on: PA-1 (Ovary)
Measurement Notes: MTT cytotoxicity assay, PA-1 cells
Type: cell-based
Condition Description: 1µM, 48 hours
Respond with the bare value in %.

For D-Phe-Cys-Tyr-D-Trp-Orn-Ac5c-Pen-Thr-NH2 [SEQ ID NO: 3] the substance record lists Percentage cytotoxicity as 19.5

For D-Phe-Cys-Tyr-D-Trp-Orn-Deg-Pen-Thr-NH2 [SEQ ID NO: 2] the substance record lists Percentage cytotoxicity as 12.8

For D-Phe-Cys-Tyr-D-Trp-Orn-Aib-Pen-Thr-NH2 [SEQ ID NO: 9] the substance record lists Percentage cytotoxicity as 16.6

For D-Phe-Cys-Tyr-D-Trp-Lys-Ac5c-Pen-Thr-NH2 [SEQ ID NO: 6] the substance record lists Percentage cytotoxicity as 8.0
